# Protocol summary: Clearance in ICR mouse at 20 mg/kg,iv administration measured upto 4 hrs by LC-MS/MS analysis
# Assay type: ADME, organism-based
# Measurement setup: in vivo
Measured clearance of individual entries

Input smiles	Units text	clearance
Cc1ccc(S(=O)(=O)O)cc1.Nc1nc(/C(=N/O[C@@H](C(=O)O)C2CCC(F)(F)CC2)C(=O)N[C@@H]2C(=O)N3C(C(=O)O)=C(CSCCNC(=O)c4ccc(O)c(O)c4Cl)CS[C@H]23)cs1	mL/min/kg	160
Nc1nc(/C(=N/O[C@@H](C(=O)[O-])C2CCC(F)(F)CC2)C(=O)N[C@@H]2C(=O)N3C(C(=O)O)=C(CSCCNC(=O)c4ccc(O)c(O)c4Cl)CS[C@H]23)cs1.[Na+]	mL/min/kg	49.8
